- SYSTEM_TESTED: Cytochrome P450 2C9 (Homo sapiens) (UniProt P11712)
- Sequence (P11712 whole entry, looked up): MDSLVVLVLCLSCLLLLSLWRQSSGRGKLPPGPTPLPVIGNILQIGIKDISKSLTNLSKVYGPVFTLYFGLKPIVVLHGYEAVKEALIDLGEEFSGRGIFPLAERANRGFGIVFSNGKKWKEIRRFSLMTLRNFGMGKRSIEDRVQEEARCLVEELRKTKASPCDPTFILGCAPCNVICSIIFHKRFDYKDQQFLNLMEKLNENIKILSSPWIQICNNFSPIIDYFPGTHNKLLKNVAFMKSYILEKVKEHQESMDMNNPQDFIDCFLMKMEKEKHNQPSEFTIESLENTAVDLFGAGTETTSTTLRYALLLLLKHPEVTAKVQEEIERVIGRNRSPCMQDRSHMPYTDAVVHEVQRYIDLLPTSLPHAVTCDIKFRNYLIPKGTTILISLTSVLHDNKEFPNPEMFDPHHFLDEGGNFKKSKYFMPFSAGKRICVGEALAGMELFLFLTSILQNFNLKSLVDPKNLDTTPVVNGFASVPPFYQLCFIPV
- ASSAY_REMARKS: Cytochrome panel assay with activity outcomes
- ASSAY_CONTEXT: recombinant CYP, pro-luciferin dealkylation, luminescence, p450-cyp2c9; series mostly up to 57.1 µM
Hit rate of the full screen: of about 16,000 compounds, about 4,000 (25%) were called active. Another 26% or so got no clear call; they are omitted. The call rests on the fitted dose curve; in most records, active means well fitted curve in the direction sought with a large enough effect; inconclusive means small, poorly fitted or top-dose-only effect, or effect the other way; inactive means no such curve, though single readings can be large or run the other way. These entries were drawn from the full list.
Outcome codes: active, inactive

Cc1ccc(NC(=O)c2sc3ccccc3c2Cl)nc1 :: inactive
CCCCOC(=S)NC(=O)c1sc2ccccc2c1Cl :: active
C/C(=N\N1CCN(C2c3ccccc3-c3ccccc32)CC1)c1ccncc1 :: active
Cn1cc(-c2nc3cnc(N4CCNCC4)nc3n(C)c2=O)c2ccccc21 :: active
CCN(CC)C(=O)CSc1nnc(-c2ccco2)n1N :: inactive
NCCCNCCCCNCCCN :: inactive
Cc1ccc(Sc2nc(C)cc(C)c2S(C)(=O)=O)cc1 :: active
COc1cccc(OC)c1OCCNC[C@@H]1COc2ccccc2O1 :: inactive
COc1ccc(NC(=O)N2CCC3(CC2)CCN(C(=O)c2csnn2)CC3)cc1 :: inactive
CC(=O)OCC1=C(C(=O)O)N2C(=O)[C@@H](NC(=O)Cc3cccs3)[C@@H]2SC1 :: inactive
C=CCc1ccccc1OC[C@H](O)CNC(C)C :: inactive
C(=N\N1CCN(C2c3ccccc3-c3ccccc32)CC1)/c1cccnc1 :: active
COc1cccc(NC(=O)c2oc3ccccc3c2NC(=O)c2ccc3c(c2)OCO3)c1 :: active
CCC(C(=O)NC(C)(C)C)N(C(=O)Cn1nnc(-c2cccs2)n1)c1cnc2ccccc2c1 (centres undefined) :: active

###

- SYSTEM_TESTED: Cytochrome P450 2C9 (Homo sapiens)
- ASSAY_REMARKS: Cytochrome panel assay with activity outcomes
- ASSAY_CONTEXT: recombinant CYP, pro-luciferin dealkylation, luminescence, p450-cyp2c9; series mostly up to 57.1 µM
- Procedure: The P450 gene superfamily is involved in the metabolism and clearance of xenobiotics. This assay used various human CYP P450 isozymes to measure the dealkylation of various pro-luciferin substrates to luciferin. The luciferin is then measured by luminescence after the addition of a luciferase detection reagent. […] Inhibitors and some substrates limit the production of luciferin, and decrease measured luminescence. […] 8, Detection, 1 sec, ViewLux luminescent read […]
Among all 16,000 compounds or so, about 4,000 (25%) were called active. Not shown: some 26% with an inconclusive outcome. Only a sample is shown.
READOUT_LABEL: AC50

Cc1cc(C)c(C#N)c(OCC(=O)c2ccc(Br)cc2)n1 :: 10 µM (active)
COC(=O)[C@@]1(Cc2ccccc2)[C@H]2c3cc(C(=O)N(C)C)n(Cc4ccsc4Br)c3C[C@H]2CN1C(=O)c1ccccc1 :: 3.98 µM (active)
CCCCc1n[nH]c2c1/C(=N/O)CC(c1ccccc1)C2 (stereo not drawn) :: 2 µM (active)
O=C(c1cccc(F)c1)N1CCC2(CCCN(Cc3cc(C(F)(F)F)cc(C(F)(F)F)c3)C2)CC1 :: inactive
O=C(c1cnccn1)N1CCC[C@@]2(CCN(Cc3ccncc3)C2)C1 :: 10 µM (active)
COC(=O)C1=C(C)OC(N)=C(C#N)C1C1CCCCC1 (stereo not drawn) :: 10 µM (active)
Clc1ccc(C2=C3CCCCn4c(-c5ccccc5)c[n+](c43)C2)cc1 :: inactive
CSc1n[nH]c(-c2sccc2OCc2ccc(C)cc2)n1 :: 5.01 µM (active)
O=C1Nc2ccc(F)cc2C12Nc1ccccc1-c1nnc(SCc3ccccc3F)nc1O2 (stereo not drawn) :: 2 µM (active)
Cc1ccc(CSc2nnc3c(n2)OC2(Nc4ccccc4-3)C(=O)Nc3ccc(F)cc32)cc1 (stereo not drawn) :: 8.91 µM (active)
CCOC(=O)C1=C(c2ccccc2)OC(N)=C(C#N)C1c1ccc(Cl)s1 (stereo not drawn) :: inactive
Cn1ccc2cc3c(cc21)CCN3C(=O)Nc1cccnc1 :: inactive
CSc1cc2c(cc1C(F)(F)F)N(C(=O)Nc1cccnc1)CC2 :: 0.00631 µM (active)
COC(=O)C1=C(C)OC(N)=C(C#N)C1c1cc(OC)ccc1OC (stereo not drawn) :: 5.01 µM (active)
O=C(O)[C@@H]1C[C@@H](C(=O)O)N1 :: inactive
O=c1c(CCc2ccccc2)nc2cncnc2n1Cc1ccc(F)cc1 :: 7.94 µM (active)
C=CCOc1ccc(CNC(C)(C)CO)cc1OC :: inactive
CCOC(=O)c1cnc(SCCc2ccccc2)nc1N :: 11.2 µM (active)
O=C(OCC1CC(c2ccccc2)=NO1)c1ccc(Cl)cc1 (stereo not drawn) :: inactive
CCOC(=O)C1=C(N)Oc2ccc(Br)cc2[C@@H]1[C@@H](C#N)C(=O)OCC :: inactive
CN(C)CCOC(=O)COc1ccc(Cl)cc1 :: inactive
Cc1ccccc1N1C(=O)c2cc(S(N)(=O)=O)c(Cl)cc2N[C@H]1C :: inactive
CN1CCc2cc(NC(=O)Nc3cccnc3)ccc21 :: inactive
